System: Rattus norvegicus
assay: Antiinflammatory activity in Charles Foster albino rat assessed as inhibition of carrageenan-induced paw edema at 50 mg/kg, po administered 30 mins before carrageenan challenge measured after 1 to 3 hrs by plethysmometer analysis
Format: functional
Please note: MET applies when inhibition in vivo at 50 mg/kg is 20% or greater, and NOT MET applies otherwise.

Here are 5 molecules together with their reported answers.
| chem smiles | tested target | label value |
| --- | --- | --- |
| N=C(NCCN1CCOCC1)c1ccccn1 | Rattus norvegicus | NOT MET |
| N=C(Nc1ccc(-c2ccc(NC(=N)c3ccncc3)cc2)cc1)c1ccncc1 | Rattus norvegicus | NOT MET |
| N=C(NCCCCNC(=N)c1ccccn1)c1ccccn1 | Rattus norvegicus | NOT MET |
| N=C(NCCCCNC(=N)c1ccncc1)c1ccncc1 | Rattus norvegicus | NOT MET |
| N=C(NCCN1CCOCC1)c1ccncc1 | Rattus norvegicus | MET |

Continue with the molecule presented below.
Task: Exam item: decide whether the reported inhibition in vivo at 50 mg/kg for "N=C(NCc1cccnc1)c1cnccn1" is at least 20%.
Output: NOT MET

# credit: ChEMBL document CHEMBL2311276
